Hello, the source for this data is patent US12214036B2, in case you need it.

- Measured Target: MER (Homo sapiens)
- Construct: recombinant phosphorylated forms of the kinase domains for AXL, MER and TYRO3; purchased Carna Biosciences 08-108
- Sequence (Q12866 587-858 limits assumed): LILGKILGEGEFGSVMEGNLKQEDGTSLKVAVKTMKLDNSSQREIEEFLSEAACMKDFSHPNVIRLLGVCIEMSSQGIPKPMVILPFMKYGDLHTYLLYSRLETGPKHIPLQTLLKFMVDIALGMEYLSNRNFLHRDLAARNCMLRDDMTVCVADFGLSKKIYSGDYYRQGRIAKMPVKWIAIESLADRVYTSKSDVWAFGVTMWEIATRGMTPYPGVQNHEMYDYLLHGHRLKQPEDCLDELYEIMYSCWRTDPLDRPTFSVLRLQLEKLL
- Experimental Protocol: TR-FRET kinase assay, cMER
- Type: biochemical
- Condition Details: average from multiple lots, n=25; read-out: IC50 against MER
Outcome Measure: pIC50
pIC50 here: minus log base 10 of the concentration, concentration in moles per litre.

Record request: pIC50 value, item CC(C)C(=O)N1CCC(c2cc(-c3ccc(NC(=O)c4cn(C(C)C)c(=O)n(-c5ccccn5)c4=O)cc3)c3c(N)ncnn23)CC1 8.50
